Fold Induction Over DMSO control values for the compounds below.
System: WM115 (Melanoma) human cancer cell line
Conditions: WM115, 1 μM, three days
Square brackets hold non-standard residues; d marks the D form. Peptide text beside a SMILES is read from it. Phe(4-Br) = N[C@@H](Cc1ccc(Br)cc1)C(=O)O; NMeF = CN[C@@H](Cc1ccccc1)C(=O)O; Hica(2S) = CC(C)C[C@H](O)C(=O)O; NMeL = CN[C@@H](CC(C)C)C(=O)O; NMeV = CN[C@H](C(=O)O)C(C)C; Aib = CC(C)(N)C(=O)O
Give the figure only, with no unit attached.

Known results for compounds:
compound: CC(C)C[C@@H]1NC(=O)[C@H](C(C)C)NC(=O)[C@H](CC(C)C)NC(=O)[C@H](CC(C)C)N(C)C(=O)[C@H](Cc2ccccc2)NC1=O [Compound 1b] (cyclo(F[NMeL]LVL))
Fold Induction Over DMSO control: 1.02

compound: CC(C)C[C@@H]1NC(=O)[C@H](C(C)C)NC(=O)[C@H](CC(C)C)OC(=O)[C@H](CC(C)C)NC(=O)[C@H](Cc2ccccc2)NC1=O [Sansalvamide A, reference compound] (cyclo(FL[Hica(2S)]VL))
Fold Induction Over DMSO control: 0.98

compound: CC(C)C[C@@H]1NC(=O)[C@H](Cc2ccc(Br)cc2)NC(=O)[C@H](CC(C)C)NC(=O)[C@H](C(C)C)N(C)C(=O)[C@H](CC(C)C)NC1=O [Compound 1g] (cyclo([Phe(4-Br)]LL[NMeV]L))
Fold Induction Over DMSO control: 1.02

compound: CC(C)C[C@@H]1NC(=O)[C@H](Cc2ccccc2)NC(=O)[C@H](Cc2ccccc2)N(C)C(=O)[C@H](Cc2ccccc2)NC(=O)C(C)(C)NC(=O)[C@H](CC(C)C)N(C)C(=O)[C@@H]2CCCN2C1=O [Scytalidamide A, reference compound] (cyclo(F[NMeF]FLP[NMeL][Aib]))
Fold Induction Over DMSO control: 1.01

Next compound, Fold Induction Over DMSO control to be filled in.
// query What does the data say about its Fold Induction Over DMSO control? Entry: CC(C)C[C@@H]1NC(=O)[C@H](Cc2ccccc2)NC(=O)[C@H](CC(C)C)NC(=O)[C@H](C(C)C)N(C)C(=O)[C@H](CC(C)C)NC1=O [Compound 1f] (cyclo(FLL[NMeV]L))
// result 1.00

Ref: patent US7709443B2
